Sourced from paper PMC10302868

Test system S. maltophilia STM-0001, MIC listed for each of the compounds.
// return numeric value only (unit: µg/mL, not printed)

O=C(O)c1cn(C2CC2)c2cc(N3CCNCC3)c(F)cc2c1=O [Ciproflox, Ciprofloxacin] : 2

Now let's try a different one.
Prompt: GET /values?readout=MIC&item= CO[C@H]1/C=C/O[C@@]2(C)Oc3c(C)c(O)c4c(O)c(c(/C=N/N5CCN(C)CC5)c(O)c4c3C2=O)NC(=O)/C(C)=C\C=C\[C@H](C)[C@H](O)[C@@H](C)[C@@H](O)[C@@H](C)[C@H](OC(C)=O)[C@@H]1C [Rifampicin]
Response: 16
